The measured values listed here are drawn from the supplement of paper PMC11061612.

- Tested on: HDQ-P1 (Breast Carcinoma);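 also: after 72 h of two-drug dosing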
- test-method-notes: Bliss excess, mean over the matrix (fraction); higher = more synergy
Below, each of the compounds is paired with its reported Bliss excess value.
quantity-kind: Bliss excess

• CN(CCO)CC[C@H](CSc1ccccc1)Nc1ccc(S(=O)(=O)NC(=O)c2ccc(N3CCC([C@@H](O)c4ccccc4-c4ccc(Cl)cc4)CC3)cc2)cc1S(=O)(=O)C(F)(F)F [AZD4320] + C=CCn1c(=O)c2cnc(Nc3ccc(N4CCN(C)CC4)cc3)nc2n1-c1cccc(C(C)(C)O)n1 [AZD1775] (first compound max 1 µM, partner max 1 µM) = 0.0886
• Cc1c2c(nn1C)CSCc1cc(n(C)n1)CSc1cc(c3ccccc3c1)OCCCc1c(C(=O)O)n(C)c3c-2c(Cl)ccc13 [AZD5991] + C1CN(CCC1(C(=O)N[C@@H](CCO)C2=CC=C(C=C2)Cl)N)C3=NC=NC4=C3C=CN4 [Capivasertib] (first compound max 1 µM, 7x7, partner max 3 µM) = 0.0072
• CCN(CCO)CCCOc1ccc2c(Nc3cc(CC(=O)Nc4cccc(F)c4)[nH]n3)ncnc2c1 [AZD2811] + O=C(c1cc(Cc2n[nH]c(=O)c3ccccc23)ccc1F)N1CCN(C(=O)C2CC2)CC1 [Olaparib] (first compound max 1 µM, 7x7, partner max 10 µM) = 0.0076
